Where do these numbers come from? They come from paper PMC5540273.

Test system: PDGFRB
Conditions: concentration: 1 μM, replicates: in singlicate; n = 1;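 also: KINOMEscan kinase panel screen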
Please respond with reported %Inh for every item in the list.
Record the value in %, omitting the unit from your answer.

Inquiry: Item Cn1cncc1-c1ccc2ncnc(Nc3ccc(OCc4ccccc4)cc3)c2c1 has what recorded %Inh?
Reply text: 9

Inquiry: Item CC(C)(C)c1ccc(C(=O)Nc2cn3cc(Cl)ccc3n2)cc1 has what recorded %Inh?
Reply text: 71

Inquiry: Item Cc1csc(-c2nc(Nc3ccncc3)c3ccccc3n2)n1 has what recorded %Inh?
Reply text: 0

Inquiry: Item Nc1nc(-c2nccs2)c(-c2ccnc3ccccc23)s1 has what recorded %Inh?
Reply text: 1

Inquiry: Item CCn1c(-c2cccnc2O)nc2cnccc21 has what recorded %Inh?
Reply text: 0

Inquiry: Item O=C(Nc1n[nH]c2nc(-c3nccs3)c(Br)cc12)C1CCCC1 has what recorded %Inh?
Reply text: 27

Inquiry: Item COc1ccc2nc(-c3cccc(C)n3)nc(Nc3ccncc3)c2c1 has what recorded %Inh?
Reply text: 25

Inquiry: Item COC(=O)c1c(-c2ccccc2)c2cc(OC)ccc2c(=O)n1Cc1ccccc1 has what recorded %Inh?
Reply text: 99.5

Inquiry: Item COc1cccc(NC(=O)NC2CCN(c3ccnc(Nc4ccc(F)cc4)n3)C2)c1 (stereo not shown) has what recorded %Inh?
Reply text: 42

Inquiry: Item CCCc1ccc(S(=O)(=O)NC2CCN(c3ccnc(Nc4ccc(F)cc4)n3)C2)cc1 (stereo not shown) has what recorded %Inh?
Reply text: 16

====

Tested on: TRKC
Construct: gene NTRK3
Conditions: concentration: 1 μM, replicates: in singlicate; n = 1
Please respond with reported %Inh for every item in the list.
Output should be the measured figure followed by the unit it is expressed in.

Inquiry: Item COc1ccc(Nc2nccc(-c3cccc(NC(=O)c4cc5cc(F)ccc5[nH]4)c3)n2)cc1 has what recorded %Inh?
Reply text: 47%

Inquiry: Item COc1cc(Nc2nccc(N3CCC(NC(=O)Nc4cc(C)ccc4C)C3)n2)cc(OC)c1OC (stereo not drawn) has what recorded %Inh?
Reply text: 20%

Inquiry: Item Cn1ccc2ncnc(Oc3ccc(Nc4nc5ccccc5[nH]4)cc3)c21 has what recorded %Inh?
Reply text: 0%

Inquiry: Item COc1cccc(-c2cc(-c3c[nH]nc3-c3ccccn3)ccn2)c1 has what recorded %Inh?
Reply text: 11%

Inquiry: Item COc1ccccc1-c1ccc2c(NC(=O)C3CC3)n[nH]c2n1 has what recorded %Inh?
Reply text: 20%

Inquiry: Item COC(=O)c1c(-c2ccccc2)c2cc(C(=O)O)ccc2c(=O)n1Cc1ccccc1 has what recorded %Inh?
Reply text: 11%

Inquiry: Item Cl.c1ccc(-c2n[nH]cc2-c2ccnc(-c3ccc(CN4CCOCC4)cc3)c2)nc1 has what recorded %Inh?
Reply text: 0%

Inquiry: Item O=C(Nc1ccccc1)Nc1cccc(Oc2ccc3nccn3n2)c1 has what recorded %Inh?
Reply text: 27%

Inquiry: Item Cn1cncc1-c1ccc2ncnc(Nc3ccc(OCc4ccccc4)cc3)c2c1 has what recorded %Inh?
Reply text: 0%

====

Tested on: RPS6KA5(Kin.Dom.1-N-terminal)
Settings: concentration: 1 μM, replicates: in singlicate; n = 1
Measure: %Inh (%)
Record the value in %, omitting the unit from your answer.

Inquiry: Item Nc1ncnc2[nH]c(-c3ccccc3)nc12 has what recorded %Inh?
Reply text: 5

Inquiry: Item Cl.Oc1ccc(-c2nc(-c3ccccc3)[nH]c2-c2ccncc2)cc1 has what recorded %Inh?
Reply text: 0

Inquiry: Item COC(=O)c1c(-c2ccccc2)c2cc(C(=O)O)ccc2c(=O)n1Cc1ccccc1 has what recorded %Inh?
Reply text: 11

Inquiry: Item Cc1cccc(-c2cc(Nc3ccncc3)c3ccccc3n2)n1 has what recorded %Inh?
Reply text: 5

Inquiry: Item Cc1ccc(NC(=O)Nc2cc(C(C)(C)C)nn2-c2ccccc2)cc1 has what recorded %Inh?
Reply text: 25

Inquiry: Item Cn1ccc2ncnc(Oc3cccc(C(=O)Nc4ccccc4)c3)c21 has what recorded %Inh?
Reply text: 19

====

System: RET
Conditions: concentration: 1 μM, replicates: in singlicate; n = 1
Measure: %Inh (%)
Record the value in %, omitting the unit from your answer.

Inquiry: Item Cc1cccc(-c2nc(C)cc(Nc3ccncc3)n2)n1 [GSK257997] has what recorded %Inh?
Reply text: 18

Inquiry: Item Clc1cc(Cl)cc(Nc2ccnc(Nc3cc(Cl)cc(Cl)c3)n2)c1 [GSK175726] has what recorded %Inh?
Reply text: 10

Inquiry: Item CN(C)CCN(C)C(=O)c1cc(-c2ccncc2)c(-c2ccc(Cl)c(O)c2)o1.Cl.Cl [SB-710397] has what recorded %Inh?
Reply text: 24

Inquiry: Item Cc1c(O)cccc1Nc1ccnc2ccc(C(F)(F)F)cc12.Cl [GW466413] has what recorded %Inh?
Reply text: 24

Inquiry: Item Cn1ccc2ncnc(Oc3ccc(NC(=O)Nc4ccccc4)cc3)c21 has what recorded %Inh?
Reply text: 17

Inquiry: Item COc1ccc(C2=C(Nc3cccc(C(=O)O)c3)C(=O)NC2=O)cc1 [SB-390765] has what recorded %Inh?
Reply text: 3

Inquiry: Item Cc1ccc(NC(=O)Nc2cc(C(C)(C)C)nn2-c2ccccc2)cc1 [GSK1014915] has what recorded %Inh?
Reply text: 46

Inquiry: Item Cc1cc(-c2ccc3c(c2)CC[C@@H](N[C@@H](C)c2ccccc2)C3)cnc1N.Cl [GW412617] has what recorded %Inh?
Reply text: 0

Inquiry: Item COc1ccc2nc(-c3cccc(C)n3)nc(Nc3ccncc3)c2c1 [GSK204919] has what recorded %Inh?
Reply text: 18

Inquiry: Item Cc1cc(N2Cc3ccccc3C2)nc(Nc2ccc(S(=O)(=O)N3CCOCC3)cc2)n1.Cl [GSK1669917] has what recorded %Inh?
Reply text: 0

Inquiry: Item Cl.NC(=O)c1cccc(Nc2nccc(Nc3ccc(Oc4cccc(Cl)c4)c(Cl)c3)n2)c1 [GW659008] has what recorded %Inh?
Reply text: 3

Inquiry: Item O=C(Nc1ccccc1)Nc1cccc(Oc2ccc3nccn3n2)c1 has what recorded %Inh?
Reply text: 8

Inquiry: Item Nc1ncnc2[nH]c(-c3ccccc3)nc12 [AH5015] has what recorded %Inh?
Reply text: 0

Inquiry: Item Cc1ccccc1-n1cnc2c(N)ncnc21 [SKF-97510] has what recorded %Inh?
Reply text: 17

Inquiry: Item Fc1cc(Cl)ccc1Nc1ccnc2cc(I)ccc12 [GW551191] has what recorded %Inh?
Reply text: 53

Inquiry: Item Nc1nc(-c2nccs2)c(-c2ccnc3ccccc23)s1 [GW693542] has what recorded %Inh?
Reply text: 37

Inquiry: Item NC(=O)c1nnc2ccccc2c1N has what recorded %Inh?
Reply text: 8

Inquiry: Item O=C(Nc1n[nH]c2nc(-c3nccs3)c(Br)cc12)C1CCCC1 [SB-742609] has what recorded %Inh?
Reply text: 0

Inquiry: Item O=c1cc(N2CCOCC2)nc2n(Cc3cccc(Cl)c3Cl)ccn12 [GSK2286295] has what recorded %Inh?
Reply text: 1

Inquiry: Item COc1cc(Nc2nccc(N3CCC(NC(=O)Nc4cc(C)ccc4C)C3)n2)cc(OC)c1OC (centres unmarked) [GSK1379762] has what recorded %Inh?
Reply text: 25

Inquiry: Item Cc1ccc(-c2cc(-c3c[nH]nc3-c3ccccn3)ccn2)cc1 [GW684088] has what recorded %Inh?
Reply text: 6

Inquiry: Item O=C(Nc1ccc2c(c1)OCO2)NC1CCN(c2ccnc(Nc3ccc(F)cc3)n2)C1 (centres unmarked) [GSK1379724] has what recorded %Inh?
Reply text: 22

Inquiry: Item COC(=O)c1c(-c2ccccc2)c2cc(OC)ccc2c(=O)n1Cc1ccccc1 has what recorded %Inh?
Reply text: 17

Inquiry: Item COc1cccc(NC(=O)NC2CCN(c3ccnc(Nc4ccc(F)cc4)n3)C2)c1 (centres unmarked) [GSK1379721] has what recorded %Inh?
Reply text: 0

Inquiry: Item Cc1csc(-c2nc(Nc3ccncc3)c3ccccc3n2)n1 [GW869640] has what recorded %Inh?
Reply text: 0

Inquiry: Item Cc1ccc(NC(=O)Nc2cccc(Cl)c2)cc1-c1ccc(C(=O)Nc2ccncc2)cc1 [GSK1398468] has what recorded %Inh?
Reply text: 1

Inquiry: Item O=C1NC(=O)C(N2CCc3ccccc32)=C1c1ccccc1Cl [SB-373598] has what recorded %Inh?
Reply text: 3

Inquiry: Item Cc1cccc(-c2nc(Nc3cccc(C(N)=O)c3)c3ccccc3n2)n1 [GW876019] has what recorded %Inh?
Reply text: 0

Inquiry: Item COc1ccc(Nc2nccc(NCCNC(=O)Nc3ccccc3F)n2)cc1 [GSK1379901] has what recorded %Inh?
Reply text: 17

Inquiry: Item CCn1c(-c2ccccn2)nc2cnccc21 [SB-736398] has what recorded %Inh?
Reply text: 24

Inquiry: Item CCn1c(-c2cccnc2O)nc2cnccc21 [SB-736715] has what recorded %Inh?
Reply text: 5

Inquiry: Item Cl.O=C(Nc1cccc(-c2nn3ncccc3c2-c2ccnc(Nc3cccnc3)n2)c1)c1c(F)cccc1F [GSK312879] has what recorded %Inh?
Reply text: 31

Inquiry: Item Cn1ccc2ncnc(Oc3ccc(Nc4nc5ccccc5[nH]4)cc3)c21 has what recorded %Inh?
Reply text: 0

Inquiry: Item CC(C)(C)c1ccc(C(=O)Nc2cn3cc(-c4cccnc4)ccc3n2)cc1 has what recorded %Inh?
Reply text: 14

Inquiry: Item Cl.Oc1ccc(-c2nc(-c3ccccc3)[nH]c2-c2ccncc2)cc1 [SB-428218] has what recorded %Inh?
Reply text: 26

Inquiry: Item COc1ccccc1CNC(=O)c1cc(C(=O)c2ccccc2C)c[nH]1 [GSK364507] has what recorded %Inh?
Reply text: 14

Inquiry: Item Cc1c(Cn2ccn3c(=O)cc(N4CCOCC4)nc23)cccc1C(F)(F)F [GSK2289044] has what recorded %Inh?
Reply text: 8

Inquiry: Item Cc1nnc(-c2ccc3occ(-c4ccc(S(C)=O)cc4)c3c2)[nH]1 (centres unmarked) has what recorded %Inh?
Reply text: 31
